// provenance: the NIST ThermoML archive (doi:10.1021/acs.jced.8b00537)

Conditions: 323.15 K; 100 kPa; Liquid; Capillary tube (Ostwald / Ubbelohde) method
Here, each record is paired with measured viscosity data.
Hi! Could you send only the number? It should be in mPa·s, unit omitted.

The cases that follow already have their viscosity on record.
[[record]]
compound = "CCCC[N+]1(C)CCCC1.O=S(=O)([N-]S(=O)(=O)C(F)(F)F)C(F)(F)F"
obs_value = 28.98

[[record]]
compound = "CCCO"
obs_value = 1.09

[[record]]
compound = "C=CCn1cc[n+](C)c1.O=S(=O)([N-]S(=O)(=O)C(F)(F)F)C(F)(F)F"
obs_value = 15.19

[[record]]
compound = "CC[S+](CC)CC.O=S(=O)([N-]S(=O)(=O)C(F)(F)F)C(F)(F)F [triethylsulfonium bis((trifluoromethyl)sulfonyl)imide]"
obs_value = 14.31


Continue with the compound presented below.
Q: Give the measured viscosity of O=S(=O)([N-]S(=O)(=O)C(F)(F)F)C(F)(F)F.On1cc[n+](O)c1 [1,3-dihydroxyimidazolium bis(trifluoromethylsulfonyl)imide] .
A: 48.29
